Here the recorded Kd is given for each entry.
molecular target: Human CD3εδ-Fc (human) (UniProt P04234); experiment: KD of scFv-Fc or IgG on human CD3εδ-Fc; instrument not given
Sequence (chain, as listed by the source mutant, chain 1 of 2): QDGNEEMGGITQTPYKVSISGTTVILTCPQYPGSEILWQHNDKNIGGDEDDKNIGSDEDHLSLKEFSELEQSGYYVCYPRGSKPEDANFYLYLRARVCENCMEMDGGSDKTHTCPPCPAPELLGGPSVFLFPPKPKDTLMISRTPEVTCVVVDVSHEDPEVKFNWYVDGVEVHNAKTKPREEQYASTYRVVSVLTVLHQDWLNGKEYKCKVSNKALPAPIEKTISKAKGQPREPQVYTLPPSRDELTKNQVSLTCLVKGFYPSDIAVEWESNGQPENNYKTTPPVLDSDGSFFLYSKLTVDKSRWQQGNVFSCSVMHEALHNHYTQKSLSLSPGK
Sequence (P04234 22-105, stated change not applied, chain 2 of 2): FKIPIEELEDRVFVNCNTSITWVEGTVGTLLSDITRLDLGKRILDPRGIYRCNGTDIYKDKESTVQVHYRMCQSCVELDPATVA
All answers are understood in nM, so give the number only.

• ADI-45962 (antibody, V domains shown, also called Ab25) VH: QVQLVQSGAEVEEPGASVKVSCKASGFNIKDYYMHWVRQAPGQRLEWIGWIDLENANTVYDAKFQGRVTITRDTSASTAYMELSSLRSEDTAVYYCARDAYGRYFYDVWGQGTLVTVSS VL: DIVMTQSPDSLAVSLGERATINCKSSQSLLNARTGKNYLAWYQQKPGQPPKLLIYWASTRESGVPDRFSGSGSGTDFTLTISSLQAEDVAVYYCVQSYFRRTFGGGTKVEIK = 0.14
• ADI-45979 (antibody, V domains shown, also called Ab16) VH: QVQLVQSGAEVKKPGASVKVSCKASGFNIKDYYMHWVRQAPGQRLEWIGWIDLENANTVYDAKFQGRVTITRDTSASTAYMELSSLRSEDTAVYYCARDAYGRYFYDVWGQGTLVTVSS VL: DIVMTQSPDSLAVSLGERATINCKSSQELLNARTGKNYLAWYQQKPGQPPKLLIYWASTRESGVPDRFSGSGSGTDFTLTISSLQAEDVAVYYCKQSYFRRTFGGGTKVEIK = 0.19
• ADI-45967 (antibody, V domains shown, also called Ab3) VH: QVQLVQSGAEVKKPGASVKVSCKASGFNIKDYYMHWVRQAPGQRLEWIGWIDLENANTVYDAKFQGRVTIARDTSASTVYMELSSLRSEDTAVYYCARDAYGRYFYDVWGQGTLVTVSS VL: DIVMTQSPDSLAVSLGERAIINCKSSQSLLNARTGKNYLAWYQQKPGQPPKLLIYWASTRESGVPDRFSGSGSGTDFTLTISSLQAEDVAVYYCTQSYFRRTFGGGTKVEIK = 0.076

Exercise: Supply measured Kd of ADI-45975 (antibody, V domains shown, also called Ab11) VH: QVQLVQSGAEVKKPGASVKVSCKASGFNIKDYYMHWVRQAPGQRLEWIGWIDLENANTVYDAKFQGRVTITRDTSASTAYMELSSLRSEDTAVYYCARDAYGQYFYDVWGQGTLVTVSS VL: DIVMTQSPDSLAVSLGERATINCKSSQSLLNARTRKNYLAWYQQKPGQPPKLLIYWASTRESGVPDRFSGSGSGTDFTLTISSLQAEDVAVYYCKQSYFRRTFGGGTKVEIK in your reply.
Key: 0.067

Exercise: Supply measured Kd of ADI-45980 (antibody, V domains shown, also called Ab17) VH: QVQLVQSGAEVKKPGASVKVSCKASGFNIKDYYMHWVRQAPGQRLEWIGWIDLENANTVYDAKFQGRVTITRDTSASTAYMELNSLRSEDTAVYYCARDAYGRYFYDVWGQGTLVTVSS VL: DIVMTQSPDSLAVSLGERATINCKSSQSLLNARTGKNYLAWYQQKPGQPPKLLIYWAFTRESGVPDRFSGSGSGTDFTLTISSLQAEDVAVYYCTQSYFRRTFGGGTKVEIK in your reply.
Key: 0.08
